Data provenance is PubChem BioAssay.

# test: small-molecule microarray binders of probe aShh, primary screen, biochemical, biotinylated probe, 635/667 nm fluorescence (AID 1114);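 note: probe is biotin-labelled aShh protein from a stem cell growth factor screen; measures binding of labelled protein to compounds printed on the slide; score merges feature fluorescence at 667 nm with signal-to-noise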
# cond: higher = more signal
Catalogue of composite z-score values
observation-type: composite z-score

>>> numeric_value("COCCCNC(=O)[C@@H]1c2ccccc2C(=O)N(Cc2ccccc2Cl)[C@H]1c1ccc(CO)cc1")
0.0684
>>> numeric_value("CCC(CC)C(O)C1C=CC2C(=O)NC(=O)C2N1Nc1ccccn1 (centres undefined)")
-0.217
>>> numeric_value("COC(=O)[C@@]1(Cc2ccc(OC)cc2)[C@H]2c3cc(C(=O)N4CCCC4)n(Cc4ccc(O)c(OC)c4)c3C[C@H]2CN1C(=O)c1ccccc1")
1.04
>>> numeric_value("CN(C)CCCCCCNC(=O)[C@@H]1C[C@@H]2C(=O)N[C@@H](Cc3ccccc3)C(=O)N2[C@@H]1c1ccc(O)cc1")
0.0668
